meta.source: patent US5733719A

Tested on: Lymphs
test details: Peptidases to distinguish leukemia from non-leukemia, lymphocytes
Type: cell-based, human
Set-up: unit not given here
condition: N201 normal
Note: every record was labeled by where its enzyme activity sits among low bin: < 1; mid bin: ≥ 1 and < 7; high bin: ≥ 7

compound="O=C1OC2(c3ccc(NC(=O)[C@@H]4CCCN4)cc3Oc3cc(NC(=O)[C@@H]4CCCN4)ccc32)c2ccccc21 [PRO, (H--L--Pro)2 Rho 110-2TFA]" class="mid bin"
compound="NCCCC[C@H](N)C(=O)Nc1ccc2c(c1)Oc1cc(NC(=O)[C@@H](N)CCCCN)ccc1C21OC(=O)c2ccccc21 [LYS, (H--L--Lys)2 Rho 110-4TFA]" class="mid bin"
compound="NC(=O)CC[C@H](N)C(=O)N[C@@H](CO)C(=O)Nc1ccc2c(c1)Oc1cc(NC(=O)[C@H](CO)NC(=O)[C@@H](N)CCC(N)=O)ccc1C21OC(=O)c2ccccc21 [QS, (H--L--Gln--Ser)2 Rho 110-2TFA]" class="low bin"
compound=NCC(=O)Nc1ccc2c(c1)Oc1cc(NC(=O)CN)ccc1C21OC(=O)c2ccccc21 class="high bin"
compound=NCC(=O)N1CCC[C@H]1C(=O)Nc1ccc2c(c1)Oc1cc(NC(=O)[C@@H]3CCCN3C(=O)CN)ccc1C21OC(=O)c2ccccc21 class="mid bin"
compound=C[C@@H](O)[C@H](N)C(=O)N1CCC[C@H]1C(=O)Nc1ccc2c(c1)Oc1cc(NC(=O)[C@@H]3CCCN3C(=O)[C@@H](N)[C@@H](C)O)ccc1C21OC(=O)c2ccccc21 class="mid bin"
compound=C[C@H](N)C(=O)Nc1ccc2c(c1)Oc1cc(NC(=O)[C@H](C)N)ccc1C21OC(=O)c2ccccc21 class="high bin"
compound="CC(C)[C@H](N)C(=O)N[C@@H](CO)C(=O)Nc1ccc2c(c1)Oc1cc(NC(=O)[C@H](CO)NC(=O)[C@@H](N)C(C)C)ccc1C21OC(=O)c2ccccc21 [VS, (H--L--Val--Ser)2 Rho 110-2TFA]" class="low bin"
compound=CC(C)C[C@H](N)C(=O)NCC(=O)Nc1ccc2c(c1)Oc1cc(NC(=O)CNC(=O)[C@@H](N)CC(C)C)ccc1C21OC(=O)c2ccccc21 class="mid bin"

---

Test system: Grans
test details: Peptidases to distinguish leukemia from non-leukemia, granulocytes
Type: cell-based, human
Parameters: unit not given here
condition: J4 12/3/91 acute leuk.
property measured: enzyme activity

molecule=C[C@H](N)C(=O)Nc1ccc2c(c1)Oc1cc(NC(=O)[C@H](C)N)ccc1C21OC(=O)c2ccccc21 result_number=138.89
molecule="NCCCC[C@H](N)C(=O)Nc1ccc2c(c1)Oc1cc(NC(=O)[C@@H](N)CCCCN)ccc1C21OC(=O)c2ccccc21 [LYS, (H--L--Lys)2 Rho 110-4TFA]" result_number=3.19
molecule=C[C@@H](O)[C@H](N)C(=O)N1CCC[C@H]1C(=O)Nc1ccc2c(c1)Oc1cc(NC(=O)[C@@H]3CCCN3C(=O)[C@@H](N)[C@@H](C)O)ccc1C21OC(=O)c2ccccc21 result_number=1.93
molecule=NCC(=O)N1CCC[C@H]1C(=O)Nc1ccc2c(c1)Oc1cc(NC(=O)[C@@H]3CCCN3C(=O)CN)ccc1C21OC(=O)c2ccccc21 result_number=1.28
molecule="O=C1OC2(c3ccc(NC(=O)[C@@H]4CCCN4)cc3Oc3cc(NC(=O)[C@@H]4CCCN4)ccc32)c2ccccc21 [PRO, (H--L--Pro)2 Rho 110-2TFA]" result_number=3.68
molecule="NC(=O)CC[C@H](N)C(=O)N[C@@H](CO)C(=O)Nc1ccc2c(c1)Oc1cc(NC(=O)[C@H](CO)NC(=O)[C@@H](N)CCC(N)=O)ccc1C21OC(=O)c2ccccc21 [QS, (H--L--Gln--Ser)2 Rho 110-2TFA]" result_number=0.19
molecule=NCC(=O)Nc1ccc2c(c1)Oc1cc(NC(=O)CN)ccc1C21OC(=O)c2ccccc21 result_number=48.53
molecule="CC(C)[C@H](N)C(=O)N[C@@H](CO)C(=O)Nc1ccc2c(c1)Oc1cc(NC(=O)[C@H](CO)NC(=O)[C@@H](N)C(C)C)ccc1C21OC(=O)c2ccccc21 [VS, (H--L--Val--Ser)2 Rho 110-2TFA]" result_number=0.23
molecule=CC(C)C[C@H](N)C(=O)NCC(=O)Nc1ccc2c(c1)Oc1cc(NC(=O)CNC(=O)[C@@H](N)CC(C)C)ccc1C21OC(=O)c2ccccc21 result_number=1.06
